Reference for the values: patent US12668600B2

# study_system: KRAS WT (Homo sapiens, UniProt P01116)
# Sequence (P01116 1-188 isoform P01116-2): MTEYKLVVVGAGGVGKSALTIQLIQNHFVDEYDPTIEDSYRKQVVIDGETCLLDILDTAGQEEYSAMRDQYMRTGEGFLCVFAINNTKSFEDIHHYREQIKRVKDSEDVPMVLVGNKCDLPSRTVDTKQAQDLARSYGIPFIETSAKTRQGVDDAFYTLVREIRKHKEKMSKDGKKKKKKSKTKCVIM
# protocol_details: HTRF KRAS-SOS1 interaction assay, wildtype KRAS
# conditions: binned ≤2 μM / >2 μM, read-out: Inhibition of KRAS WT (IC50)
What IC50 was measured for each of the following?

Please review the entries below; each comes with its answer.
- compound: "C[C@H](c1cccnc1N)N1CCOc2c(Cl)c(-c3cccc4sc(N)c(C#N)c34)c(F)c3nc(OC[C@@]45CCCN4CC(=C(F)F)C5)nc1c23 (single isomer, unassigned)"
  obs_value: "≤ 2000 nM"
- compound: "Cc1cnc(N)c([C@@H](C)N2CCOc3c(C(F)(F)F)c(-c4ccc(F)c5sc(N)c(C#N)c45)c(F)c4nc(OC[C@@]56CCCN5C[C@H](F)C6)nc2c34)n1 (single isomer, unassigned)"
  obs_value: "≤ 2000 nM"
- compound: "C=Cc1c(-c2ccc(F)c3sc(N)c(C#N)c23)c(F)c2nc(OC[C@@]34CCCN3C[C@H](F)C4)nc3c2c1OCCN3[C@H](C)c1cccnc1N (single isomer, unassigned)"
  obs_value: "≤ 2000 nM"
- compound: "CO[C@H]1CCN(C)[C@@H]1[C@H](C)Oc1nc2c3c(c(C(F)(F)F)c(-c4ccc(F)c5sc(N)c(C#N)c45)c(F)c3n1)OCCN2[C@H](C)c1cccnc1N"
  obs_value: "≤ 2000 nM"
- compound: "CCO/N=C(\\C)CCC[C@H](c1cccnc1N)N1CCOc2c(C(F)(F)F)c(-c3ccc(F)c4sc(N)c(C#N)c34)c(F)c3nc(OC[C@@]45CCCN4C[C@H](F)C5)nc1c23 (single isomer, unassigned) [Compound 715]"
  obs_value: "≤ 2000 nM"
- compound: "N#Cc1c(N)sc2cccc(-c3c(Cl)c4c5c(nc(OC[C@@]67CCCN6C[C@H](F)C7)nc5c3F)N([C@@H](c3cccnc3N)C(F)F)CCO4)c12 (single isomer, unassigned) [Compound 802]"
  obs_value: "> 2000 nM"
- compound: "N#Cc1c(N)sc2c(F)ccc(-c3c(C(F)(F)F)c4c5c(nc(OC[C@@]67CCCN6C[C@H](F)C7)nc5c3F)N([C@H](CC3CCOC3)c3cccnc3N)CCO4)c12 (single isomer, unassigned) [Compound 911]"
  obs_value: "≤ 2000 nM"
- compound: "C[C@H](c1cccnc1N)N1CCOc2c(C(F)(F)F)c(-c3cc(F)c(F)c4sc(N)c(C#N)c34)c(F)c3nc(OC[C@@]45CCCN4C[C@H](F)C5)nc1c23 (single isomer, unassigned) [Compound 863]"
  obs_value: "> 2000 nM"

Consider C#Cc1c(F)ccc2cc(O)cc(-c3nc4c5c(nc(OC[C@@H]6CCCN6C)nc5c3F)N(C(C)c3cccnc3N)CCO4)c12 (mixture of isomers) [Compound 722] . Its measured IC50 is ≤ 2000 nM

###

# study_system: KRAS G12D (Homo sapiens, UniProt P01116, G12D)
# Sequence (P01116 1-188 isoform P01116-2 G12D): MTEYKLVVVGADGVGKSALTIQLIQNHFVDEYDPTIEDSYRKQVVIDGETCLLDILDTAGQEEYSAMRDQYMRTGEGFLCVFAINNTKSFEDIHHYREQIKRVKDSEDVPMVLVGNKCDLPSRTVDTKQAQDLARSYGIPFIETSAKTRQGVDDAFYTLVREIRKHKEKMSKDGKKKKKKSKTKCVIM
# protocol_details: HTRF KRAS-SOS1 interaction assay, KRAS G12D
# conditions: binned ≤2 μM / >2 μM, read-out: Inhibition of KRAS G12D (IC50)
Provide the recorded IC50 for the entries that follow.

- compound: "N#Cc1c(N)sc2c(F)ccc(-c3c(C(F)(F)F)c4c5c(nc(OC[C@@]67CCCN6C[C@H](F)C7)nc5c3F)N([C@H](CCC3CCC3)c3cccnc3N)CCO4)c12 (single isomer, unassigned) [Compound 631]"
  obs_value: "> 2000 nM"
- compound: "N#Cc1c(N)sc2c(F)ccc(-c3c(C(F)(F)F)c4c5c(nc(OC[C@@]67CCCN6C[C@H](F)C7)nc5c3F)N([C@H](CCC3CC3)c3cccnc3N)CCO4)c12 (single isomer, unassigned) [Compound 877]"
  obs_value: "≤ 2000 nM"

Could you tell me IC50 for each of these compounds? They are listed below.
1. C[C@H](c1cccnc1N)N1CCOc2c(C(F)(F)F)c(-c3ccc(F)c4sc(N)c(C#N)c34)c(F)c3nc(OCC4(CN5[C@H](C)COC[C@@H]5C)CC4)nc1c23 (single isomer, unassigned) [Compound 719]
2. CCC(c1cccnc1N)N1CCOc2c(Cl)c(-c3ccc(F)c4sc(N)c(C#N)c34)c(F)c3nc(OC[C@@]45CCCN4C[C@H](F)C5)nc1c23 (mixture of isomers) [Compound 844]
3. Cc1c(F)c(N)cc(-c2nc3c4c(nc(OC[C@@]56CCCN5C[C@H](F)C6)nc4c2F)N([C@H](C)c2cccnc2N)CCO3)c1C(F)(F)F (single isomer, unassigned) [Compound 765]

1: > 2000 nM; 2: ≤ 2000 nM; 3: ≤ 2000 nM

###

# study_system: KRAS G12S (Homo sapiens, UniProt P01116, G12S)
# Sequence (P01116 1-188 isoform P01116-2 G12S): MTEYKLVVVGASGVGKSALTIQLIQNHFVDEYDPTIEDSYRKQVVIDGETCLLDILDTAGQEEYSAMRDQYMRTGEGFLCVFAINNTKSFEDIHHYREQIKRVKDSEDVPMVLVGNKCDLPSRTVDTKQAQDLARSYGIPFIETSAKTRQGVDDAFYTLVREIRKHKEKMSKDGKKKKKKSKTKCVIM
# protocol_details: HTRF KRAS-SOS1 interaction assay, KRAS G12S
# conditions: binned ≤2 μM / >2 μM, read-out: Inhibition of KRAS G12S (IC50)
Hi there, I'd appreciate the recorded IC50 for every entry that follows.

- compound: "CCO/N=C(\\C)CCC[C@H](c1cccnc1N)N1CCOc2c(C(F)(F)F)c(-c3ccc(F)c4sc(N)c(C#N)c34)c(F)c3nc(OC[C@@]45CCCN4C[C@H](F)C5)nc1c23 (single isomer, unassigned) [Compound 715]"
  obs_value: "≤ 2 µM"

For Cc1cnc(N)c([C@@H](C)N2CCOc3c(C(F)(F)F)c(-c4ccc(F)c5sc(N)c(C#N)c45)c(F)c4nc(OC[C@@]56CCCN5C[C@H](F)C6)nc2c34)n1 (single isomer, unassigned) the compound record lists IC50 as ≤ 2 µM

###

# study_system: KRAS WT (Homo sapiens)
# protocol_details: HTRF KRAS-SOS1 interaction assay, wildtype KRAS
# conditions: binned ≤2 μM / >2 μM, read-out: Inhibition of KRAS WT (IC50)
# Description: This assay can be also used to assess a selective inhibition or reduction of signaling output of a mutant Ras protein relative to a wildtype, or relative to a different mutant Ras protein. For example, the equilibrium interaction of wildtype KRAS or K-Ras mutant (e.g., wildtype or a mutant thereof) with SOS1 (e.g., hSOS1) can be assessed as a proxy or an indication for the ability of a subject compound to bind and inhibit Ras protein. […]
measured_endpoint: IC50

Previously resolved entries follow.
- compound: "C=CC[C@H](c1cccnc1N)N1CCOc2c(C(F)(F)F)c(-c3ccc(F)c4sc(N)c(C#N)c34)c(F)c3nc(OC[C@@]45CCCN4C[C@H](F)C5)nc1c23 (single isomer, unassigned) [Compound 734]"
  measured_endpoint: "IC50"
  obs_value: "> 2000 nM"
- compound: "N#Cc1c(N)sc2c(F)ccc(-c3c(C(F)(F)F)c4c5c(nc(OC[C@@]67CCCN6C[C@@]6(CC6(F)F)C7)nc5c3F)N([C@H](CCC(F)(F)F)c3cc(F)cnc3N)CCO4)c12"
  measured_endpoint: "IC50"
  obs_value: "≤ 2000 nM"

Reported IC50 ( N#Cc1c(N)sc2c(F)ccc(-c3c(Cl)c4c5c(nc(OC[C@@]67CCCN6C[C@H](F)C7)nc5c3F)N(C(/C=C\C(F)(F)F)c3cccnc3N)CCO4)c12 (single isomer, unassigned) ) = ≤ 2000 nM

###

# study_system: KRAS G12V (Homo sapiens, UniProt P01116, G12V)
# Sequence (P01116 1-188 isoform P01116-2 G12V): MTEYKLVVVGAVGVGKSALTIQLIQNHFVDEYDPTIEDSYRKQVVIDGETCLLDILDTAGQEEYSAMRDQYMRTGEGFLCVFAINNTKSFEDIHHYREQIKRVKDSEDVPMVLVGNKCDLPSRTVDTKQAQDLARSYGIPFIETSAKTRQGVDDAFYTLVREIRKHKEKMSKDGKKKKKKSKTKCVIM
# protocol_details: HTRF KRAS-SOS1 interaction assay, KRAS G12V
# conditions: binned ≤2 μM / >2 μM, read-out: Inhibition of KRAS G12V (IC50)
Exercise: for every item that follows, state its recorded IC50.

- compound: "N#Cc1c(N)sc2c(F)ccc(-c3c(Cl)c4c5c(nc(OC[C@@]67CCCN6C[C@H](F)C7)nc5c3F)N(C(CCCO)c3cccnc3N)CCO4)c12 (mixture of isomers)"
  measured_endpoint: "IC50"
  obs_value: "≤ 2 µM"

Provide the reported IC50 of each entry below, same order.
1. N#Cc1c(N)sc2c(F)ccc(-c3c(C(F)(F)F)c4c5c(nc(OC[C@@]67CCCN6C[C@H](F)C7)nc5c3F)N([C@H](CC3CCOCC3)c3cccnc3N)CCO4)c12 (single isomer, unassigned)
2. C=C1CN2CCC[C@@]2(COc2nc3c4c(c(C(F)(F)F)c(-c5ccc(F)c6sc(N)c(C#N)c56)c(F)c4n2)OCCN3[C@H](C)c2cccnc2N)C1

≤ 2 µM
≤ 2 µM

###

For each of the molecules below, state its pIC50.
# study_system: KRAS G12D (Homo sapiens, UniProt P01116, G12D)
# protocol_details: HTRF KRAS-SOS1 interaction assay, KRAS G12D
# conditions: binned ≤2 μM / >2 μM, read-out: Inhibition of KRAS G12D (IC50)
# Excerpt: This assay can be also used to assess a selective inhibition or reduction of signaling output of a mutant Ras protein relative to a wildtype, or relative to a different mutant Ras protein. For example, the equilibrium interaction of wildtype KRAS or K-Ras mutant (e.g., wildtype or a mutant thereof) with SOS1 (e.g., hSOS1) can be assessed as a proxy or an indication for the ability of a subject compound to bind and inhibit Ras protein. […]
pIC50: −log10 of the molar value.

Solved cases below.
- molecule: "CS(=O)(=O)CCC[C@H](c1cccnc1N)N1CCOc2c(C(F)(F)F)c(-c3ccc(F)c4sc(N)c(C#N)c34)c(F)c3nc(OC[C@@]45CCCN4C[C@H](F)C5)nc1c23 (single isomer, unassigned) [Compound 805]"
  obs_value: "≥ 5.70"
- molecule: "N#Cc1c(N)sc2c(F)ccc(-c3c(Cl)c4c5c(nc(OC[C@@]67CCCN6C[C@H](F)C7)nc5c3F)N([C@H](C#CC3CC3)c3cccnc3N)CCO4)c12 [Compound 609]"
  obs_value: "≥ 5.70"

Notebook: C[C@H](c1cc(Cl)cnc1N)N1CCOc2c(C(F)(F)F)c(-c3ccc(F)c4sc(N)c(C#N)c34)c(F)c3nc(OCC4(CN5CC[C@@H](F)C5)CC4)nc1c23 [Compound 811] , pIC50 read as ≥ 5.70
